Recorded koff for the following binders
Assayed Target: T1, Peptide-biotin
T1 construct: also called antigen
T1 sequence (Q8TD43 other isoform, or with tags, fused parts or gaps): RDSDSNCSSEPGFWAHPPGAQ
Assay Procedure: SPR Biacore 8K affinity ranking; antibody Fc-captured, Peptide-biotin analyte, 1:1 fit
Respond with the bare value in s⁻¹.

Some entries whose results are on file:
>  <Binder>
humanized anti-TRPM4 antibody clone A2 (VH1 + VL1) (antibody, human IgG1, kappa, V domains shown, also called VH1 + VL1 (A2)) VH: QVQLQESGPGLVKPSQTLSLTCTVSGYSITSDYAWNWIRQHPGKGLEWIGYLSYSGVTSYNPSLKGRVTISVDTSKNQFSLKLSSVTAADTAVYYCARKGTYYRYEGSYWYFDVWGQGTTVTVSS VL: DIQMTQSPSSLSASVGDRVTITCHANQNIDVWLSWYQQKPGKAPKLLIYKTSNLHTGVPSRFSGSGSGTDFTFTISSLQPEDIATYYCQQGQSYPLTFGGGTKLEIKR

>  <Units Label>
s⁻¹

>  <koff>
0.00166

$$$$
>  <Binder>
humanized anti-TRPM4 antibody clone A3 (VH1 + VL2) (antibody, V domains shown, Full-length IgG, IgG1 heavy chain; also called VH1 + VL2 (A3)) VH: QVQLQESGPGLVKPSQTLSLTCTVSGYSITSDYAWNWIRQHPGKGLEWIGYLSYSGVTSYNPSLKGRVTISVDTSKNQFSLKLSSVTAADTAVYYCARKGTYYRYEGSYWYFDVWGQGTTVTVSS VL: DIQMTQSPSSLSASVGDRVTITCHANQNIDVWLSWYQQKPGKAPKLLIYKTSNLHTGVPSRFSGSGSGTDFTLTISSLQPEDIATYYCQQGQSYPLTFGGGTKLEIKR

>  <Units Label>
s⁻¹

>  <koff>
0.00321

$$$$
>  <Binder>
humanized anti-TRPM4 antibody VH4 + VL1 (antibody, V domains shown, Full-length IgG) VH: QVQLQESGPGLVKPSQTLSLTCTVSGYSITSDYAWNWIRQHPGKGLQWMGYLSYSGVTSYNPSLKGRITISRDTSKNQFFLKLSSVTAADTAVYYCARKGTYYRYEGSYWYFDVWGQGTTVTVSS VL: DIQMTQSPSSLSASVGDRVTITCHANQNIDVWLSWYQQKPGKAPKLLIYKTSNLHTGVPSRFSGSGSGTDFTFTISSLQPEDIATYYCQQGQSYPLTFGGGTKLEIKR

>  <Units Label>
s⁻¹

>  <koff>
0.00136

$$$$
>  <Binder>
humanized anti-TRPM4 antibody clone A6 (VH2 + VL1) (antibody, V domains shown, Full-length IgG, IgG1 heavy chain; also called VH2 + VL1 (A6)) VH: QVQLQESGPGLVKPSQTLSLTCTVSGYSITSDYAWNWIRQHPGKGLEWMGYLSYSGVTSYNPSLKGRVTISRDTSKNQFSLKLSSVTAADTAVYYCARKGTYYRYEGSYWYFDVWGQGTTVTVSS VL: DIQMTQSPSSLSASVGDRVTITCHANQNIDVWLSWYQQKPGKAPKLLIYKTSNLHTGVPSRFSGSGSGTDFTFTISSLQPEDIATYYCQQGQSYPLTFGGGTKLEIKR

>  <Units Label>
s⁻¹

>  <koff>
0.00195

$$$$
>  <Binder>
humanized anti-TRPM4 antibody VH3 + VL3 (antibody, V domains shown, Full-length IgG) VH: QVQLQESGPGLVKPSQTLSLTCTVSGYSITSDYAWNWIRQHPGKGLQWMGYLSYSGVTSYNPSLKGRITISRDTSKNQFSLKLSSVTAADTAVYYCARKGTYYRYEGSYWYFDVWGQGTTVTVSS VL: DIQMTQSPSSLSASVGDRVTITCHANQNIDVWLSWYQQKPGNAPKLLIYKTSNLHTGVPSRFSGSGSGTDFTFTISSLQPEDIATYYCQQGQSYPLTFGGGTKLEIKR

>  <Units Label>
s⁻¹

>  <koff>
0.0018

$$$$

// below: koff requested for another binder
Req: Consider the binder humanized anti-TRPM4 antibody VH3 + VL2 (antibody, V domains shown, Full-length IgG) VH: QVQLQESGPGLVKPSQTLSLTCTVSGYSITSDYAWNWIRQHPGKGLQWMGYLSYSGVTSYNPSLKGRITISRDTSKNQFSLKLSSVTAADTAVYYCARKGTYYRYEGSYWYFDVWGQGTTVTVSS VL: DIQMTQSPSSLSASVGDRVTITCHANQNIDVWLSWYQQKPGKAPKLLIYKTSNLHTGVPSRFSGSGSGTDFTLTISSLQPEDIATYYCQQGQSYPLTFGGGTKLEIKR and give its measured koff.
Resp: 0.00198
